Every entry's value here was drawn from patent EP3917907B1.

Experiment: Photostability (HPLC, solar simulator irradiation)
Assay type: physicochemical
Settings: percentage of degradation after 6 h irradiation with solar simulator; 100 ppm in extracellular solution pH 7.4
recordedEndpoint: Photostability

>  <compound>
O=S(=O)(Nc1ccc2c(c1)CCN2Cc1ccc(F)cc1)C1CCCCC1

>  <Photostability>
C (degradation > 40%)

$$$$
>  <compound>
CC(C)(C)CNC(=S)Nc1ccc2c(c1)CCN2Cc1ccc(F)cc1

>  <Photostability>
B (20%< degradation<40%)

$$$$
>  <compound>
CCOC(=O)Nc1ccc2c(c1)CCN2Cc1ccc(F)cc1

>  <Photostability>
C (degradation > 40%)

$$$$
>  <compound>
CN1CCN(S(=O)(=O)Nc2ccc3c(c2)CCN3Cc2ccc(F)cc2)CC1

>  <Photostability>
B (20%< degradation<40%)

$$$$
>  <compound>
O=S(=O)(Nc1ccc2c(c1)CCN2Cc1ccc(F)cc1)c1ccccc1

>  <Photostability>
B (20%< degradation<40%)

$$$$
>  <compound>
CC(C)CS(=O)(=O)Nc1ccc2c(c1)CCN2Cc1ccc(F)cc1

>  <Photostability>
C (degradation > 40%)

$$$$
>  <compound>
COc1ccc([C@H](C)Nc2ccc(NS(=O)(=O)C3CCCCC3)cc2)cc1

>  <Photostability>
C (degradation > 40%)

$$$$
>  <compound>
CCc1cccc(S(=O)(=O)Nc2ccc(NCc3ccc(OC)cc3)cc2)c1

>  <Photostability>
C (degradation > 40%)

$$$$
>  <compound>
COc1ccc(CN2c3ccc(NS(=O)(=O)C4CCCCC4)cc3CC2C)cc1 (stereo not drawn)

>  <Photostability>
C (degradation > 40%)

$$$$
>  <compound>
CCCCCCS(=O)(=O)Nc1ccc2c(c1)CCN2Cc1ccc(F)cc1

>  <Photostability>
C (degradation > 40%)

$$$$

Provide the reported Photostability of each entry below, same order.
1. CC1(C)[C@@H]2CC[C@@]1(CS(=O)(=O)Nc1ccc3c(c1)CCN3Cc1ccc(F)cc1)C(=O)C2
2. Cc1c(NS(=O)(=O)C2CCCCC2)ccc2c1ccn2Cc1ccc(C(F)(F)F)cc1
3. O=C(c1ccc(F)cc1)N1CCc2cc(NS(=O)(=O)C3CCCCC3)ccc21
4. CCOC(=O)Nc1ccc(NCc2ccc(F)cc2)cc1N [Retigabine, reference compound]
5. Cc1cc2cc(NS(=O)(=O)C3CCCCC3)ccc2n1Cc1ccc(F)cc1N
6. O=S(=O)(Nc1ccc2c(c1)CCN2Cc1ccc(C(F)(F)F)cc1)C1CCCCC1
7. COc1ccc(CNc2ccc(NS(=O)(=O)C3CCCCC3)cc2)cc1

["C (degradation > 40%)", "B (20%< degradation<40%)", "B (20%< degradation<40%)", "C (degradation > 40%)", "B (20%< degradation<40%)", "C (degradation > 40%)", "C (degradation > 40%)"]

* * *

For each entry below, report its Idrug/Ictl at -40 mV value.
Target: Kv7.2 (Homo sapiens)
Construct: expressed in transfected cells; host or cells: CHO cells (ATCC CRL-9618), transient transfection, pcDNA3.1(+)
Assay: Whole-cell patch-clamp on CHO cells transiently expressing Kv7.2
Assay type: cell-based
Settings: ratio of ramp-evoked Kv7.2 current amplitude in presence and absence of drug at -40 mV; CHO cells; mean±SEM; >1 activating, <1 inhibiting
Protocol: According to the experimental protocol, these plasmids were expressed individually or in combination (in particular of Kv7.2 and Kv7.3), together with a plasmid-expressing enhanced green fluorescent protein (Clontech, Palo Alto, CA) used as a transfection marker. […] Currents from CHO cells were recorded at room temperature (20-22°C) 24 hours after trasfection using the whole-cell configuration of the patch-clamp technique, with glass micropipettes of 3-5 MΩ resistance. […]
Give bare numbers.

As a guide, the following entries are already answered.
>  <compound>
O=S(=O)(Nc1ccc2c(c1)CCN2Cc1ccc(C(F)(F)F)cc1)C1CCCCC1

>  <measuredNumber>
3.2

$$$$
>  <compound>
CCCCCCC(=O)Nc1ccc(NCc2ccc(F)cc2)c(F)c1

>  <measuredNumber>
8.85

$$$$
>  <compound>
O=C(Cc1ccc(Cl)cc1)N1CCc2cc(NS(=O)(=O)C3CCCCC3)ccc21

>  <measuredNumber>
1.45

$$$$
>  <compound>
CC(C)(C)CNC(=N)Nc1ccc2c(c1)CCN2Cc1ccc(F)cc1

>  <measuredNumber>
0.98

$$$$
>  <compound>
COc1ccc(CN2c3ccc(NS(=O)(=O)C4CCCCC4)cc3CC2C)cc1 (stereo not drawn)

>  <measuredNumber>
1.13

$$$$
>  <compound>
O=S(=O)(Nc1ccc2c(c1)CCN2Cc1ccc(F)cc1F)C1CCCCC1

>  <measuredNumber>
5.82

$$$$

Provide the reported Idrug/Ictl at -40 mV of each entry below, same order.
1. O=C(Nc1ccc2c(c1)CCN2Cc1ccc(F)cc1)C1CCCCC1
2. CCCCCCS(=O)(=O)Nc1ccc2c(c1)CCN2Cc1ccc(F)cc1
3. COCCOCCC(=O)Nc1ccc2c(ccn2Cc2ccc(C(F)(F)F)cc2)c1
4. CC(C)CS(=O)(=O)Nc1ccc2c(c1)CCN2Cc1ccc(F)cc1
5. O=S(=O)(Nc1ccc2c(ccn2Cc2ccc(C(F)(F)F)cc2)c1)C1CCCCC1
6. CC1(C)[C@H]2CC[C@]1(CS(=O)(=O)Nc1ccc3c(c1)CCN3Cc1ccc(F)cc1)C(=O)C2

1: 1.32; 2: 2.48; 3: 2.64; 4: 2.55; 5: 2.27; 6: 1.49
